Tested on: NCI-H460 lung
PROTOCOL TEXT: NCI tumour cell line growth inhibition, 48 h
PARAMETER MEASURED: TGI

Completed entries (count: 3):
>>> df
                           smiles_structure    result
0       CC1=C(N2CC2)C(=O)C(CO)=C(N2CC2)C1=O   1.85 µM
1  COc1ccc(/C=C2/C(=O)N(C(=O)c3ccccc3O)N=C2C)cc1OC  > 100 µM
2  Cn1cc(-c2csc(-c3c[nH]c4ncccc34)n2)c2cc(Br)cnc21  > 100 µM

As a next step, examine the compound that follows.
Any idea what TGI came out for Cc1c2ccccc2c(C)c2c3c(ccc12)C(=O)C=CC3=O on NCI-H460 lung? > 100 µM

---

Test system: A498 renal
PROTOCOL TEXT: NCI tumour cell line growth inhibition, 48 h
PARAMETER MEASURED: TGI

Completed entries (count: 4):
In [3]: df
Out[3]:
                                   compound    result
0  C=CCC(C(=O)OC)C1(C(=O)OC)c2[nH]c3ccccc3c2CCN1Cc1ccccc1 (stereo not given)  > 100 µM
1       Clc1ccccc1C(n1cc(Br)cn1)n1cc(Br)cn1   35.9 µM
2  O=C(Oc1cccnc1)c1ccccc1Nc1ccnc(C(F)(F)F)c1   13.1 µM
3  Fc1ccc(-c2nc(-c3nc4ccc(Cl)cc4[nH]3)cc3c2[nH]c2ccccc23)cc1   9.71 µM

State the recorded TGI for this entry: COC(=O)CCC(NC(=S)N/N=C(\C)c1ccccn1)C(=O)OC (stereo not given) > 100 µM

---

Tested on: CCRF-CEM leukemia
PROTOCOL TEXT: NCI tumour cell line growth inhibition, 48 h
Listed below: TGI values for each entry.

State the recorded TGI for this entry: O=[N+]([O-])c1cc2n[nH]nc2c2nonc12 59.9 µM

State the recorded TGI for this entry: O=C1Cc2cc(CCn3ccnc3)c(Cl)cc2N1 > 100 µM

---

Test system: OVCAR-3 ovarian
PROTOCOL TEXT: NCI tumour cell line growth inhibition, 48 h
PARAMETER MEASURED: TGI

Completed entries (count: 3):
In [3]: df
Out[3]:
                                   compound    result
0  COc1cc2c(cc1OCCCCNC(=O)c1cc3ccccc3[nH]1)N=CC1CCCN1C2=O (stereo unspecified)  > 100 µM
1         CCCCCCN(CCCCCC)CCCNc1nccc2ccccc12   3.55 µM
2  CCOC(=O)C(Cc1ccc2c(c1)CCC2)(Cc1ccc2c(c1)CCC2)C(=O)OCC  > 100 µM

State the recorded TGI for this entry: OC(c1ccccc1)(c1ccccc1)c1ccccn1 > 100 µM

State the recorded TGI for this entry: C=CCN1C(=O)/C(=c2\sc3n(c2=O)C2C(NN=3)N(CC)C(=O)N2CC)c2ccccc21 (stereo unspecified) 2.35 µM

State the recorded TGI for this entry: C/C(CN1C(=O)c2ccccc2C1=O)=N\NS(=O)(=O)c1ccccc1 > 100 µM

---

Please consider the recorded GI50 for IGROV1 ovarian in what follows.

>>> print(df.to_string())
                                   molecule  parameter_measured       result
0  Cn1cc(-c2csc(-c3c[nH]c4ncccc34)n2)c2cc(Br)cnc21                GI50      2210 nM
1          CC/C(=N\Nc1nc2ccccc2n1C)c1ccccn1                GI50      29.4 nM
2  CCOP(=O)(CCP(=O)(OCC)OCC)OCC.C[CH2][Sn]([Cl])([Cl])[CH2]C                GI50  > 100000 nM

Any idea what GI50 came out for CCCNc1nc(N(C)O)nc(N(C)O)n1 on IGROV1 ovarian? 2130 nM

Any idea what GI50 came out for O=C1C2=C(C(=O)c3c(O)ccc(O)c31)N(c1ccc(N3CCOCC3)nc1)Cc1ccccc1O2 on IGROV1 ovarian? 277 nM

Any idea what GI50 came out for CC1=C(N2CC2)C(=O)C(CO)=C(N2CC2)C1=O on IGROV1 ovarian? 16.8 nM

Any idea what GI50 came out for Cc1ccc(/C=C(\C#N)n2nnc3cc(Cl)c(Cl)cc32)cc1 on IGROV1 ovarian? 2260 nM

Any idea what GI50 came out for Cc1cccc(CN(C)c2ccc(CO)c(Cl)c2)c1 on IGROV1 ovarian? 475 nM

Any idea what GI50 came out for O=C1NC(=NCC(CO)c2ccccc2)S/C1=C\c1ccc2ncccc2c1 (centres undefined) on IGROV1 ovarian? 19000 nM
